system: AncSZ; experiment: phosphorylation enrichment, bacterial display (enrichment ratio); higher = better substrate or ligand; peptides without Tyr show the background;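 also: 11-residue human phosphosite peptides and single-mutation variants displayed on the E. coli surface, counted by deep sequencing, each peptide's frequency after selection divided by its frequency in the unselected input library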;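 also: frequency after pTyr selection over input frequency; kinase dosed for 20-30% of maximal phosphorylation in three min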
phosphorylation enrichment by entry:

{"columns": ["input-sequence", "assayed-target", "phosphorylation enrichment"],
 "data": [
  ["ELRGTYTSLQQ [KIF3C_Y574]", "AncSZ", 0.705],
  ["CLAKMYFSAVD [CP_Y539_YF]", "AncSZ", 1.04],
  ["AGVIIYTSRFQ [PFAS_Y538_A535V]", "AncSZ", 1.05],
  ["MAYDRYVAICS [OR8D4_Y123_C120Y]", "AncSZ", 1.01],
  ["VSYDEYRYRSV [CFTR_Y515]", "AncSZ", 0.754],
  ["LERFIYNRQEF [HLA-DPB1_Y59_E62Q_YF]", "AncSZ", 0.766],
  ["NGQALYAACQT [XDH_Y1092_V1091L]", "AncSZ", 0.775],
  ["GCAGKYIAMVM [CYP19A1_Y441]", "AncSZ", 1],
  ["HITQVYGFYDE [PPP2CA_Y127_Q122H]", "AncSZ", 2.11],
  ["NQDRTYFERVR [SPEN_Y632_S635R_YF]", "AncSZ", 0.607],
  ["DFFDLYGGEKF [PTPN11_Y66_YF]", "AncSZ", 0.912],
  ["CFSSEYHFVGG [CTSC_Y345_Y340C_YF]", "AncSZ", 2.64],
  ["NLFIEYPTGSG [IRF2BPL_Y423_K418N]", "AncSZ", 1.14],
  ["ITNHIYTWVDP [DFNB31_Y234_V229I]", "AncSZ", 2.4],
  ["SWSTSYSGFRC [NKAPL_Y91_Y96C_YF]", "AncSZ", 0.985],
  ["KNRDVYSSDFF [USP24_Y2134_YF]", "AncSZ", 0.651],
  ["YIIFIYAMKKK [SLCO1B1_Y645_L643F]", "AncSZ", 0.602],
  ["QLLIEYPPEEV [ZZZ3_Y670_K669E]", "AncSZ", 1.36],
  ["YYSSEYHCVGG [CTSC_Y345_Y347C]", "AncSZ", 3.84],
  ["AKLDEYIAIAK [RCOR3_Y46]", "AncSZ", 0.92],
  ["FVSSFYHAFSG [ACTN4_Y265_YF]", "AncSZ", 0.999],
  ["CGTPTYLAPEV [CHEK2_Y390]", "AncSZ", 2.38],
  ["PPPELYFVKVD [TERT_Y707]", "AncSZ", 1.76],
  ["KNDSKYVVKGN [KIT_Y823_N822K]", "AncSZ", 0.52],
  ["QELRRYLKSGI [MICA_Y194_V199I]", "AncSZ", 0.489],
  ["YKEQGYHRLPS [RIN1_Y681_P686S]", "AncSZ", 0.531]
]}

Recorded values, source the supplement of paper PMC10065799.
